Data provenance: patent US20200270309A1

# System: human retinal capillary endothelial cells (HRCECs)
# Test: MTT proliferation inhibition on HRCECs
# Assay type: cell-based
# Condition parameters: 48 h, dose 0.05 μM
Peptide text beside a SMILES is read from it. * marks the point of attachment. X59 = O=C1C=CC(=O)N1c1cccc(CCCCCCCCC(=O)*)c1; X66 = O=C1C=CC(=O)N1c1cccc(CCCCCCCC(=O)*)c1; X55 = O=C1C=CC(=O)N1c1ccccc1CCCCCCCCC(=O)*; X46 = O=C1C=CC(=O)N1c1cccc(CCCCC(=O)*)c1; X61 = O=C1C=CC(=O)N1c1cccc(CCCC(=O)*)c1
# Inhibition rate (%) annotations
Field: numeric (%*). Do not append units.

{"Compound": "C[C@H](NC(=O)CNC(=O)[C@H](CCCNC(=N)N)NC(=O)CCCCCCCCc1ccccc1N1C(=O)C=CC1=O)C(=O)N[C@@H](CC(=O)O)C(=O)N[C@@H](CCCNC(=N)N)C(=O)N[C@@H](C)C(=O)NCC(=O)NCC(=O)NCC(=O)NCC(=O)N[C@@H](CCCNC(=N)N)C(=O)NCC(=O)N[C@@H](CC(=O)O)C(=O)O [X20] (X55-RGADRAGGGGRGD-OH)", "Unit of measure": "%*", "Recorded value": 44.28}
{"Compound": "C[C@H](NC(=O)CNC(=O)[C@H](CCCNC(=N)N)NC(=O)CCCc1cccc(N2C(=O)C=CC2=O)c1)C(=O)N[C@@H](CC(=O)O)C(=O)N[C@@H](CCCNC(=N)N)C(=O)N[C@@H](C)C(=O)NCC(=O)NCC(=O)NCC(=O)NCC(=O)N[C@@H](CCCNC(=N)N)C(=O)NCC(=O)N[C@@H](CC(=O)O)C(=O)O [X27] (X61-RGADRAGGGGRGD-OH)", "Unit of measure": "%*", "Recorded value": 49.84}
{"Compound": "C[C@H](NC(=O)CNC(=O)[C@H](CCCNC(=N)N)NC(=O)CCCCCCCCc1cccc(N2C(=O)C=CC2=O)c1)C(=O)N[C@@H](CC(=O)O)C(=O)N[C@@H](CCCNC(=N)N)C(=O)N[C@@H](C)C(=O)NCC(=O)NCC(=O)NCC(=O)NCC(=O)N[C@@H](CCCNC(=N)N)C(=O)NCC(=O)N[C@@H](CC(=O)O)C(=O)O [X32] (X59-RGADRAGGGGRGD-OH)", "Unit of measure": "%*", "Recorded value": 52.91}
{"Compound": "C[C@H](NC(=O)CNC(=O)[C@H](CCCNC(=N)N)NC(=O)CCCCCCCc1cccc(N2C(=O)C=CC2=O)c1)C(=O)N[C@@H](CC(=O)O)C(=O)N[C@@H](CCCNC(=N)N)C(=O)N[C@@H](C)C(=O)NCC(=O)NCC(=O)NCC(=O)NCC(=O)N[C@@H](CCCNC(=N)N)C(=O)NCC(=O)N[C@@H](CC(=O)O)C(=O)O [X31] (X66-RGADRAGGGGRGD-OH)", "Unit of measure": "%*", "Recorded value": 41.92}

We now examine a further compound.
// query I am curious: what Inhibition rate (%) value has been reported for C[C@H](NC(=O)CNC(=O)[C@H](CCCNC(=N)N)NC(=O)CCCCc1cccc(N2C(=O)C=CC2=O)c1)C(=O)N[C@@H](CC(=O)O)C(=O)N[C@@H](CCCNC(=N)N)C(=O)N[C@@H](C)C(=O)NCC(=O)NCC(=O)NCC(=O)NCC(=O)N[C@@H](CCCNC(=N)N)C(=O)NCC(=O)N[C@@H](CC(=O)O)C(=O)O [X28] (X46-RGADRAGGGGRGD-OH) ?
// result 48.58
